Kindly supply the reported PBM binding z-score values for the records listed here.
# Test system: RARg:RXRa (NR concentration 270 nM, RXRa partner concentration 90 nM)
# Protocol summary: PBM binding z-score (relative to random genomic background probes); higher = stronger binding; sequences stand for … in GC…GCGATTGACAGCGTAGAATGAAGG

Challenge: # get_value(readout='PBM binding z-score', item= GCAGACAGGTGAAACGAAGGTAACTCAGGGTGGC )
Response given: 1.1

Challenge: # get_value(readout='PBM binding z-score', item= TCTAGCAGGCCAAAGGGTCACTCAAGAGGTACGG )
Response given: 4.65

Challenge: # get_value(readout='PBM binding z-score', item= TATACAGGGTCAAAGGCCCGAGTACGAATGTCGA )
Response given: 5.28

Challenge: # get_value(readout='PBM binding z-score', item= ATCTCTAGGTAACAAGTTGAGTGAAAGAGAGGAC )
Response given: 0.858

Challenge: # get_value(readout='PBM binding z-score', item= CGAACGAGGGCATGAGTTGTTAGCAAATGCCGAT )
Response given: 0.951

Challenge: # get_value(readout='PBM binding z-score', item= ACTATTAGTTGATACGAGGGCAACCGATAGGTTG )
Response given: 1.03
